Form field: GI50 (one value per entry).
Tested on: A549
Experiment: NCI tumour cell line growth inhibition, 48 h
Active and inactive are the calls of the source. Cut-off read from the data, not from the text of the source: active = GI50 up to about 1.1 µM and inactive = higher.

The cases that follow already have their GI50 on record.
>>> result("OC1C=C2C3CN(Cc4cc5c(cc43)OCO5)[C@H]2C[C@@H]1O (stereo not given in full)")
"3.74 µM (inactive)"
>>> result("CCN(CC)CCNC(=O)c1ccc([N+](=O)[O-])cc1OC")
"> 100 µM (inactive)"
>>> result("CCCOc1ccc(-c2nc(-c3ccc(/N=C/c4ccc(N(CCOS(C)(=O)=O)CCOS(C)(=O)=O)cc4C)cc3)cs2)cc1")
"4.59 µM (inactive)"
>>> result("O=C1NNC2NC(=O)C3(NN2C1=O)c1ccccc1-c1ccccc13 (stereo not given)")
"> 100 µM (inactive)"

For the compound shown here, COC(=O)c1ccccc1C1=C([N+](=O)[O-])C(c2ccccc2)C(C#N)=C(N)O1 (stereo not given) , give the reported GI50.
> 100 µM (inactive)
